Hey, just so you know, these numbers are from paper PMC7802075.

inhibition by entry:
# Target desc: LmjIPCS (inositol phosphorylceramide synthase from L. major) (Leishmania major)
# Sequence (E9AFX2 whole entry): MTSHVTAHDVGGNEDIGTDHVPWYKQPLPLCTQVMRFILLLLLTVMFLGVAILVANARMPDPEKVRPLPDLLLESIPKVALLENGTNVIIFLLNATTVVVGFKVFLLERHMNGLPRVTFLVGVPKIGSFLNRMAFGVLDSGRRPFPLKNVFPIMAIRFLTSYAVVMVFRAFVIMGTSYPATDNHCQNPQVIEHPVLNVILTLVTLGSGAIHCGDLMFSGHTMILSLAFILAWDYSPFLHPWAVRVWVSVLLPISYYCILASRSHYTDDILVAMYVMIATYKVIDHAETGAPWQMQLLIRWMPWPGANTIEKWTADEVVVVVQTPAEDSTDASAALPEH
# Method description: biochemical
# Type: biochemical
# Design: dose or concentration left out as unconfirmed
# Details: read-out: inhibition LmjIPCS
Please state the figure in %; there is no need to write the unit.

Below, each entry is followed by its recorded inhibition result.
Exercise: Given the entry CC(C)NCC(O)c1ccc(O)c(O)c1 (centres unmarked) [ISOPROTERENOL] , what inhibition was observed with LmjIPCS (inositol phosphorylceramide synthase from L. major) (Leishmania major)?
Solution: 11

Exercise: Continue with O=C(O)P(=O)(O)O [FOSCARNET]
Solution: 2

Exercise: Continue with CNC(C)C1CCC(N)C(OC2C(N)CC(N)C(OC3OCC(C)(O)C(NC)C3O)C2O)O1 (centres unmarked) [GENTAMICIN]
Solution: -1

New cases:
Exercise: Given the entry "NC(=O)CN1CCCC1=O" , what inhibition was observed with LmjIPCS (inositol phosphorylceramide synthase from L. major) (Leishmania major)?
Solution: 6

Exercise: Continue with CCn1cc(C(=O)O)c(=O)c2cc(F)c(N3CCNCC3)cc21 [NORFLOXACIN]
Solution: 17

Exercise: Continue with Cc1c(NC(=O)c2cccnc2)c(=O)n(-c2ccccc2)n1C [NIFENAZONE]
Solution: 11

Exercise: Continue with Cc1cc(C)nc(NS(=O)(=O)c2ccc(N)cc2)n1 [SULFAMETHAZINE]
Solution: 1.49

Exercise: Continue with Cc1cc2nc3c(=O)[nH]c(=O)nc-3n(C[C@H](O)[C@H](O)[C@H](O)CO)c2cc1C [RIBOFLAVIN]
Solution: 2.26

Exercise: Continue with C[C@@H]1O[C@@H]1P(=O)(O)O [FOSFOMYCIN]
Solution: 16

Exercise: Continue with O=C(O)CCc1nc(-c2ccccc2)c(-c2ccccc2)o1 [OXAPROZIN]
Solution: 5.6

Exercise: Continue with CN1C(C(=O)Nc2ccccn2)=C(O)c2sccc2S1(=O)=O [TENOXICAM]
Solution: 7.55

Exercise: Continue with COc1ccc2[nH]cc(CCNC(C)=O)c2c1 [MELATONIN]
Solution: -5.63
